The measurements presented in this section are drawn from paper PMC8587869.

Tested on: LPS-induced PGE2 production
Assay: Inhibition of LPS-induced PGE2 production in RAW 264.7 macrophages
Assay type: cell-based, murine
Settings: Mus musculus, RAW264.7, LPS-induced RAW 264.7 macrophages
Method: Upon confirming the non-cytotoxicity of 10 μM concentration of these three derivatives against murine RAW 264.7 macrophages induced by LPS, compounds 1f, 1k, and 1m were tested for inhibitory effect against LPS-induced PGE2 production together with checking their cell viability. […] Moreover, 1f and 1m were evaluated at 1 and 10 μM for inhibitory effects on LPS-induced NO production. […]
I'd appreciate it if you could supply pIC50 values for the items below.
Answers are plain numbers, as −log10 of the molar value.

>  <smiles input>
COc1cc(-c2nn(-c3cccc(NC(=O)CN4CCN(Cc5ccccc5)CC4)c3)cc2-c2ccncc2)ccc1Cl

>  <measurement name>
pIC50

>  <number>
5.12

$$$$

Now consider the entry below.
Tested on LPS-induced PGE2 production, the item "COc1cc(-c2nn(-c3cccc(NC(=O)CCN4CCN(Cc5ccc(F)cc5)CC4)c3)cc2-c2ccncc2)ccc1Cl" showed pIC50 equal to 5.96

----------
Assay: MTT assay for cell viability in RAW 264.7 macrophages
Format: cell-based, murine
Conditions: mouse; 1 μM; murine RAW 264.7 macrophages; mean ± SD of three experiments
measurement name: viability at 1 µM (%)
Give bare numbers, in %.

>  <smiles input>
COc1cc(-c2nn(-c3cccc(NC(=O)CN4CCN(C)CC4)c3)cc2-c2ccncc2)ccc1Cl

>  <viability at 1 µM, %>
78

$$$$
>  <smiles input>
CCN1CCN(CC(=O)Nc2cccc(-n3cc(-c4ccncc4)c(-c4ccc(Cl)c(OC)c4)n3)c2)CC1

>  <viability at 1 µM, %>
75

$$$$

Kindly give each listed record's viability at 1 µM.
1. COc1cc(-c2nn(-c3cccc(NC(=O)CCN4CCOCC4)c3)cc2-c2ccncc2)ccc1Cl
2. CCN1CCN(CCC(=O)Nc2cccc(-n3cc(-c4ccncc4)c(-c4ccc(Cl)c(OC)c4)n3)c2)CC1
3. COc1cc(-c2nn(-c3cccc(NC(=O)CN4CCOCC4)c3)cc2-c2ccncc2)ccc1Cl
4. COc1cc(-c2nn(-c3cccc(NC(=O)CCN4CCCCC4)c3)cc2-c2ccncc2)ccc1Cl
5. COc1cc(-c2nn(-c3cccc(NC(=O)CCN4CCN(c5ccccc5)CC4)c3)cc2-c2ccncc2)ccc1Cl

A.
1. 99
2. 98
3. 92
4. 87
5. 89

----------
Assay: MTT assay for cell viability in RAW 264.7 macrophages
Type: cell-based, murine
Conditions: mouse; 10 μM; murine RAW 264.7 macrophages; mean ± SD of three experiments
measurement name: viability at 10 µM (%)
Give bare numbers, in %.

Reference set (5 entries):
>  <smiles input>
COc1cc(-c2nn(-c3cccc(NC(=O)CN4CCOCC4)c3)cc2-c2ccncc2)ccc1Cl

>  <viability at 10 µM / %>
65

$$$$
>  <smiles input>
COc1cc(-c2nn(-c3cccc(NC(=O)CN4CCN(Cc5ccccc5)CC4)c3)cc2-c2ccncc2)ccc1Cl

>  <viability at 10 µM / %>
107

$$$$
>  <smiles input>
CCN1CCN(CCC(=O)Nc2cccc(-n3cc(-c4ccncc4)c(-c4ccc(Cl)c(OC)c4)n3)c2)CC1

>  <viability at 10 µM / %>
5

$$$$
>  <smiles input>
COc1cc(-c2nn(-c3cccc(NC(=O)CCN4CCCCC4)c3)cc2-c2ccncc2)ccc1Cl

>  <viability at 10 µM / %>
5

$$$$
>  <smiles input>
COc1cc(-c2nn(-c3cccc(NC(=O)CN4CCN(C)CC4)c3)cc2-c2ccncc2)ccc1Cl

>  <viability at 10 µM / %>
5

$$$$

Kindly give each listed record's viability at 10 µM.
1. COc1cc(-c2nn(-c3cccc(NC(=O)CCN4CCN(c5ccccc5)CC4)c3)cc2-c2ccncc2)ccc1Cl
2. COc1cc(-c2nn(-c3cccc(NC(=O)CCN4CCOCC4)c3)cc2-c2ccncc2)ccc1Cl
3. CCN1CCN(CC(=O)Nc2cccc(-n3cc(-c4ccncc4)c(-c4ccc(Cl)c(OC)c4)n3)c2)CC1

A.
1: 112; 2: 75; 3: 3

Kindly give each listed record's viability at 10 µM.
1. COc1cc(-c2nn(-c3cccc(NC(=O)CCN4CCN(Cc5ccccc5)CC4)c3)cc2-c2ccncc2)ccc1Cl
2. COc1cc(-c2nn(-c3cccc(NC(=O)CN4CCCCC4)c3)cc2-c2ccncc2)ccc1Cl
3. COc1cc(-c2nn(-c3cccc(NC(=O)CN4CCN(c5ccccc5)CC4)c3)cc2-c2ccncc2)ccc1Cl
4. COc1cc(-c2nn(-c3cccc(NC(=O)CCN4CCN(C)CC4)c3)cc2-c2ccncc2)ccc1Cl
5. COc1cc(-c2nn(-c3cccc(NC(=O)CCN4CCN(Cc5ccc(F)cc5)CC4)c3)cc2-c2ccncc2)ccc1Cl

A.
1. 34
2. 10
3. 65
4. 5
5. 97
